Data origin: ChEMBL document CHEMBL1128448

# Test system: Candida tropicalis
# experiment-notes: Evaluation of In vitro antifungal activity against Candida tropicalis 2.11 by broth macro dilution method
# Format: functional
readout-kind: MFC (µg/mL)
Give bare numbers, in µg/mL.

[[record]]
input_smiles = "C[C@@H](NC(=O)c1ccc(C(F)(F)F)cc1)[C@](O)(Cn1cncn1)c1ccc(F)cc1F"
u = "µg/mL"
reading = 64


What does the record list as MFC for CC(=O)N1CCN(c2ccc(OC[C@H]3CO[C@](Cn4ccnc4)(c4ccc(Cl)cc4Cl)O3)cc2)CC1 ?
8

* * *

# Test system: Candida parapsilosis
# experiment-notes: In vitro evaluation of minimum inhibitory concentration against Candida parapsilosis 61
# Assay type: functional
readout-kind: MIC (µg/mL)
Give bare numbers, in µg/mL.

[[record]]
compound = "C[C@@H](NC(=O)c1ccc(C(F)(F)F)cc1)[C@](O)(Cn1cncn1)c1ccc(F)cc1F"
u = "µg/mL"
reading = 2.5

[[record]]
compound = "C[C@H]1N(C(=O)c2ccc(C(F)(F)F)cc2)CCO[C@@]1(Cn1cncn1)c1ccc(F)cc1F (stereo in doubt)"
u = "µg/mL"
reading = 2.5

[[record]]
compound = "C[C@H]1N(C(=O)c2ccc(C(F)(F)F)cc2)CCO[C@@]1(Cn1cncn1)c1ccc(F)cc1F (racemic)"
u = "µg/mL"
reading = 40

[[record]]
compound = "C[C@@H](NC(=O)c1ccc(C(F)(F)F)cc1)[C@](O)(Cn1cncn1)c1ccc(F)cc1F (racemic)"
u = "µg/mL"
reading = 20


Return reported MIC values for all items listed beneath this line.
1. C[C@H]1N(C(=O)c2ccc(C(F)(F)F)cc2)CC(=O)O[C@@]1(Cn1cncn1)c1ccc(Cl)cc1Cl (racemic)
2. C[C@H]1N(C(=O)c2ccc(C(F)(F)F)cc2)CCO[C@@]1(Cn1cncn1)c1ccc(F)cc1F (stereo in doubt; (-)-41)
3. C[C@H]1N(C(=O)c2ccc(C(F)(F)F)cc2)C[C@H](O)O[C@@]1(Cn1cncn1)c1ccc(F)cc1F (racemic)

1: 40; 2: 10; 3: 80

* * *

# System: Candida parapsilosis
# experiment-notes: Evaluation of In vitro antifungal activity against Candida parapsilosis ATCC 141095 by broth macro dilution method
# Assay type: functional
# stated-conditions: Lodderomyces parapsilosis
Would you mind telling me the reported MFC of each entry?
One number for each entry, in µg/mL.

[[record]]
input_smiles = "CC(=O)N1CCN(c2ccc(OC[C@H]3CO[C@](Cn4ccnc4)(c4ccc(Cl)cc4Cl)O3)cc2)CC1"
u = "µg/mL"
reading = 16


// next item, MFC requested
What does the record list as MFC for C[C@@H](NC(=O)c1ccc(C(F)(F)F)cc1)[C@](O)(Cn1cncn1)c1ccc(F)cc1F ?
32

* * *

# Tested on: Mus sp.
# experiment-notes: In vivo evaluation of % survival rate after peroral administration on 3rd day at dose 2.5 mg/kg
# Format: functional
# stated-conditions: Mus sp., po
Would you mind telling me the reported survival at 2.5 mg/kg of each entry?
Give bare numbers, in %.

[[record]]
molecule = "OC(Cn1cncn1)(Cn1cncn1)c1ccc(F)cc1F"
study_system = "Mus sp."
u = "%"
reading = 100

[[record]]
molecule = "C[C@H]1N(C(=O)c2ccc(OCC(F)(F)C(F)F)cc2)CC(=O)O[C@@]1(Cn1cncn1)c1ccc(F)cc1F (racemic)"
study_system = "Mus sp."
u = "%"
reading = 100

[[record]]
molecule = "C[C@H]1N(C(=O)c2ccc(C(F)(F)F)cc2)CC(=O)O[C@@]1(Cn1cncn1)c1ccc(C(F)(F)F)cc1 (racemic)"
study_system = "Mus sp."
u = "%"
reading = 20

[[record]]
molecule = "C[C@H]1N(C(=O)c2ccc(OCC(F)(F)F)cc2)CC(=O)O[C@@]1(Cn1cncn1)c1ccc(F)cc1F (racemic)"
study_system = "Mus sp."
u = "%"
reading = 100

[[record]]
molecule = "C[C@H]1N(C(=O)c2ccc(C(F)(F)F)cc2)C[C@H](O)O[C@@]1(Cn1cncn1)c1ccc(F)cc1F (racemic)"
study_system = "Mus sp."
u = "%"
reading = 100

[[record]]
molecule = "C[C@H]1N(C(=O)c2ccc(OCC(F)(F)C(F)F)cc2)CC(=O)O[C@@]1(Cn1cncn1)c1ccc(Cl)cc1Cl (racemic)"
study_system = "Mus sp."
u = "%"
reading = 90


// next item, survival at 2.5 mg/kg requested
What does the record list as survival at 2.5 mg/kg for C[C@H]1N(C(=O)c2ccc(C(F)(F)F)cc2F)CC(=O)O[C@@]1(Cn1cncn1)c1ccc(F)cc1F (racemic) ?
100

* * *

# System: Microsporum canis
# experiment-notes: In vitro evaluation of minimum inhibitory concentration against Microsporum canis 47
# Assay type: functional
readout-kind: MIC (µg/mL)
Give bare numbers, in µg/mL.

Some entries whose results are on file:
[[record]]
molecule = "C[C@H]1N(C(=O)c2ccc(C(F)(F)F)cc2)C[C@H](O)O[C@@]1(Cn1cncn1)c1ccc(F)cc1F (racemic)"
study_system = "Microsporum canis"
readout_kind = "MIC"
reading = 80

[[record]]
molecule = "C[C@H]1N(C(=O)c2ccc(C(F)(F)F)cc2)CCO[C@@]1(Cn1cncn1)c1ccc(F)cc1F (stereo in doubt)"
study_system = "Microsporum canis"
readout_kind = "MIC"
reading = 10


// next item, MIC requested
What does the record list as MIC for C[C@H]1N(C(=O)c2ccc(C(F)(F)F)cc2)CCO[C@@]1(Cn1cncn1)c1ccc(F)cc1F (stereo in doubt; (-)-41) ?
20

* * *

# Test system: Candida tropicalis
# experiment-notes: Evaluation of In vitro antifungal activity against Candida tropicalis 2.11 by broth macro dilution method
# Assay type: functional
readout-kind: MFC

[[record]]
compound = "C[C@H]1N(C(=O)c2ccc(C(F)(F)F)cc2)CCO[C@@]1(Cn1cncn1)c1ccc(F)cc1F (stereo in doubt; (-)-41)"
readout_kind = "MFC"
reading = "> 64 µg/mL"

[[record]]
compound = "OC(Cn1cncn1)(Cn1cncn1)c1ccc(F)cc1F"
readout_kind = "MFC"
reading = "> 64 µg/mL"


// next item, MFC requested
What does the record list as MFC for C[C@H]1N(C(=O)c2ccc(C(F)(F)F)cc2)C[C@H](O)O[C@@]1(Cn1cncn1)c1ccc(F)cc1F (stereo in doubt; (-)-39a) ?
> 64 µg/mL

* * *

# Tested on: Candida parapsilosis
# experiment-notes: In vitro evaluation of minimum inhibitory concentration against Candida parapsilosis 61
# Format: functional
readout-kind: MIC

Some entries whose results are on file:
[[record]]
molecule = "C[C@H]1N(C(=O)c2ccc(C(F)(F)F)cc2)CCO[C@@]1(Cn1cncn1)c1ccc(F)cc1F (stereo in doubt; (+)-41)"
study_system = "Candida parapsilosis"
reading = ">80 µg/mL"

[[record]]
molecule = "C[C@H]1N(C(=O)c2ccc(C(F)(F)F)cc2)CC(=O)O[C@@]1(Cn1cncn1)c1ccc(Cl)cc1Cl (stereo in doubt; (+)-32a)"
study_system = "Candida parapsilosis"
reading = ">80 µg/mL"


What does the record list as MIC for C[C@H]1N(C(=O)c2ccc(C(F)(F)F)cc2)C[C@H](O)O[C@@]1(Cn1cncn1)c1ccc(F)cc1F (stereo in doubt; (+)-39a) ?
>80 µg/mL

* * *

# Test system: Candida parapsilosis
# experiment-notes: Evaluation of In vitro antifungal activity against Candida parapsilosis ATCC 141095 by broth macro dilution method
# Format: functional
# stated-conditions: Lodderomyces parapsilosis
readout-kind: MFC

Some entries whose results are on file:
[[record]]
compound = "OC(Cn1cncn1)(Cn1cncn1)c1ccc(F)cc1F [FLUCONAZOLE]"
study_system = "Candida parapsilosis"
reading = "> 64 µg/mL"

[[record]]
compound = "C[C@H]1N(C(=O)c2ccc(C(F)(F)F)cc2)C[C@H](O)O[C@@]1(Cn1cncn1)c1ccc(F)cc1F (stereo in doubt; (-)-39a)"
study_system = "Candida parapsilosis"
reading = "> 64 µg/mL"


// next item, MFC requested
What does the record list as MFC for C[C@H]1N(C(=O)c2ccc(C(F)(F)F)cc2)CCO[C@@]1(Cn1cncn1)c1ccc(F)cc1F (stereo in doubt; (-)-41) ?
> 64 µg/mL
